# assay_system: CYP2C9 (Homo sapiens, UniProt P11712)
# Sequence (P11712 whole entry): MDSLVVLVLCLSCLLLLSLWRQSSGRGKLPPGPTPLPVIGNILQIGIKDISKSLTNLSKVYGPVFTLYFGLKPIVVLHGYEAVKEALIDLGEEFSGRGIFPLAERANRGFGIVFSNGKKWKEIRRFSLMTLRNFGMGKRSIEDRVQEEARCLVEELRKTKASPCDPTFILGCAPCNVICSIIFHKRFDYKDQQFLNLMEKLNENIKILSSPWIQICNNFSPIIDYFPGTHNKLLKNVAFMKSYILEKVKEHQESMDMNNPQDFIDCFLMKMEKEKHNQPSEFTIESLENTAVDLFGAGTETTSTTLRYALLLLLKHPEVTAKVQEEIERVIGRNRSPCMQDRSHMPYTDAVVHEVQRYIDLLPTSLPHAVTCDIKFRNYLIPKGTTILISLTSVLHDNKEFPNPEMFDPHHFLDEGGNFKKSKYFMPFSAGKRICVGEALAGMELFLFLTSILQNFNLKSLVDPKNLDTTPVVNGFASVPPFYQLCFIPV
# experimental_details: in vitro
# experimental_context: human liver microsomes, pH 7.4, probe Diclofenac 10 μM (in five-substrate cocktail)
Measured activity at 15 min, 10 µM, listed per entry for reference.

Problem: Which measured activity at 15 min, 10 µM belongs to O=S(=O)(/C=C/c1ncccc1Cl)c1ccccc1F [drawing 157, reference compound] , tested on CYP2C9 (Homo sapiens, UniProt P11712)?
Solution: 45.5%

Problem: Same question for N=S(=O)(/C=C/c1ccccn1)c1ccccc1F (stereo not shown) [Compound 1-1] please.
Solution: 85.7%

Problem: Same question, O=S(=O)(/C=C/c1cccnc1Cl)c1ccccc1Cl [reference compound] this time
Solution: 88.7%

Problem: Subsequent entry: COc1ccccc1S(=N)(=O)/C=C/c1ncccc1Cl (stereo not shown) [Compound 1-8]
Solution: 192%

Problem: Now try COc1ccccc1S(=O)(=O)/C=C/c1ncccc1Cl [reference compound] .
Solution: 209%

Problem: Next record, please: N=S(=O)(/C=C/c1cccnc1)c1ccccc1Cl (stereo not shown) [Compound 1-12]
Solution: 87.1%

Problem: Follow-up item: N=S(=O)(/C=C/c1cccnc1Cl)c1ccccc1Cl (stereo not shown) [Compound 1-13]
Solution: 169%

Values compiled from patent US20260248772A1.
